Just for reference, patent US20200087400A1 is where these values come from.

target: T1, Bio-P19 member A2E-2 (chain 2 carries a C-terminal BirA substrate peptide (BSP), enzymatically biotinylated; the BSP letters are not given in the patent and are left out); assay: phage ELISA, streptavidin plate, anti-M13-HRP
T1 construct: also called biotinylated control peptide A2E-2/HLA-A*02:01 monomer
T1 sequence (beta, as listed by the source): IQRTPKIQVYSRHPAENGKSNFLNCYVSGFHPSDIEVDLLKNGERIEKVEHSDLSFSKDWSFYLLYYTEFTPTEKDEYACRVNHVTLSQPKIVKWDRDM
recorded_endpoint: binding result

Return reported binding result; argument: PSA146/HLA-A*02:01-specific scFv phage clone #12 (scFv, V domains shown) VH: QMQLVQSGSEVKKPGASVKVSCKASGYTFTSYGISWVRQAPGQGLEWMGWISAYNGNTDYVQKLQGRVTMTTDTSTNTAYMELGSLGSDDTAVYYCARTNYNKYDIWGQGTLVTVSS VL: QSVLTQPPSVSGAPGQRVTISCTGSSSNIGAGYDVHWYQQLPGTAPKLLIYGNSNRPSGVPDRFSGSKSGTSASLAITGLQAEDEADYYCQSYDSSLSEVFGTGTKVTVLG no binding

Return reported binding result; argument: PSA146/HLA-A*02:01-specific scFv phage clone #14 (scFv, V domains shown) VH: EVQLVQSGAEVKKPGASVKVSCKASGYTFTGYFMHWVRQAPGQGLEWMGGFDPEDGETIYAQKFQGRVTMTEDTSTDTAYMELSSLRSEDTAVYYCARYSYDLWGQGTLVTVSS VL: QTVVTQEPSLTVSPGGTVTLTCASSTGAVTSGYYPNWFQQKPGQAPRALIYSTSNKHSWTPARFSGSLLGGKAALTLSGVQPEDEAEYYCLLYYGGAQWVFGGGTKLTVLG no binding

Return reported binding result; argument: PSA146/HLA-A*02:01-specific scFv phage clone #6 (scFv, V domains shown) VH: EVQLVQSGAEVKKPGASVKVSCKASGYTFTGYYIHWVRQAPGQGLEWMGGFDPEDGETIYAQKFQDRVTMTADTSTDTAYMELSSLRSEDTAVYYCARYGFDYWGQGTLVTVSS VL: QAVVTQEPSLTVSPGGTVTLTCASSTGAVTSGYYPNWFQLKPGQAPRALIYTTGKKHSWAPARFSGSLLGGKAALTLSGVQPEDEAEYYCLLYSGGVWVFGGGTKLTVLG no binding
